- System: Klebsiella pneumonia PCI 602
- METHOD_SUMMARY: MIC, standard serial dilution method
- Format: cell-based
- CONDITIONS_USED: Klebsiella pneumonia PCI 602 (Table 2); Muller-Hinton agar medium, 37° C.
ENDPOINT_LABEL: Minimum growth inhibitory concentrations (MIC.)

CNC(=O)CC1NC(=O)c2csc(n2)-c2ccc(-c3nc(C(=O)NCCCCCC(=O)OC)cs3)nc2-c2csc(n2)-c2csc(n2)C(C(C)C)NC(=O)CNC(=O)c2csc(n2)C(C(C)C)NC(=O)c2nc1sc2C (stereo not drawn): > 100 µg/mL
CNC(=O)CC1NC(=O)c2csc(n2)-c2ccc(-c3nc(C(=O)NCCCN(C)CCCNCCc4ccc(Cl)cc4)cs3)nc2-c2csc(n2)-c2csc(n2)C(C(C)C)NC(=O)CNC(=O)c2csc(n2)C(C(C)C)NC(=O)c2nc1sc2C (stereo not drawn): > 100 µg/mL
CNC(=O)CC1NC(=O)c2csc(n2)-c2ccc(-c3nc(C(=O)NCCCCCC(=O)O)cs3)nc2-c2csc(n2)-c2csc(n2)C(C(C)C)NC(=O)CNC(=O)c2csc(n2)C(C(C)C)NC(=O)c2nc1sc2C (stereo not drawn): > 100 µg/mL
CCCCNCCCNCCCNC(=O)c1csc(-c2ccc3c(n2)-c2csc(n2)-c2csc(n2)C(C(C)C)NC(=O)CNC(=O)c2csc(n2)C(C(C)C)NC(=O)c2nc(sc2C)C(CC(=O)NC)NC(=O)c2csc-3n2)n1 (stereo not drawn): > 100 µg/mL
CNC(=O)CC1NC(=O)c2csc(n2)-c2ccc(-c3nc(C(=O)NCCCN)cs3)nc2-c2csc(n2)-c2csc(n2)C(C(C)C)NC(=O)CNC(=O)c2csc(n2)C(C(C)C)NC(=O)c2nc1sc2C (stereo not drawn): > 100 µg/mL

Query molecule follows.
Item CNC(=O)CC1NC(=O)c2csc(n2)-c2ccc(-c3nc(C(=O)NCCCN(C)CCCN)cs3)nc2-c2csc(n2)-c2csc(n2)C(C(C)C)NC(=O)CNC(=O)c2csc(n2)C(C(C)C)NC(=O)c2nc1sc2C (stereo not drawn) : provide Minimum growth inhibitory concentrations (MIC.)
> 100 µg/mL

====

Measured Minimum growth inhibitory concentrations (MIC.) of individual entries
- Test system: Bacillus anthracis
- Assay type: cell-based
- CONDITIONS_USED: Muller-Hinton agar medium, 37° C.
Reply with just the number (in µg/mL).

CNC(=O)CC1NC(=O)c2csc(n2)-c2ccc(-c3nc(C(=O)NCCCN(C)CCCN)cs3)nc2-c2csc(n2)-c2csc(n2)C(C(C)C)NC(=O)CNC(=O)c2csc(n2)C(C(C)C)NC(=O)c2nc1sc2C (stereo not drawn) [Compound No. 4]: 3.12
CCCCNCCCNCCCNC(=O)c1csc(-c2ccc3c(n2)-c2csc(n2)-c2csc(n2)C(C(C)C)NC(=O)CNC(=O)c2csc(n2)C(C(C)C)NC(=O)c2nc(sc2C)C(CC(=O)NC)NC(=O)c2csc-3n2)n1 (stereo not drawn) [Compound No. 6]: 25
CNC(=O)CC1NC(=O)c2csc(n2)-c2ccc(-c3nc(C(=O)NCCCN)cs3)nc2-c2csc(n2)-c2csc(n2)C(C(C)C)NC(=O)CNC(=O)c2csc(n2)C(C(C)C)NC(=O)c2nc1sc2C (stereo not drawn) [Compound No. 5]: 0.78

Item CNC(=O)CC1NC(=O)c2csc(n2)-c2ccc(-c3nc(C(=O)NCCCCCC(=O)OC)cs3)nc2-c2csc(n2)-c2csc(n2)C(C(C)C)NC(=O)CNC(=O)c2csc(n2)C(C(C)C)NC(=O)c2nc1sc2C (stereo not drawn) [Compound No. 1] : provide Minimum growth inhibitory concentrations (MIC.)
0.98

====

- Test system: Pseudomonas aeruginosa A3
- METHOD_SUMMARY: MIC, standard serial dilution method
- Format: cell-based
- CONDITIONS_USED: Muller-Hinton agar medium, 37° C.
ENDPOINT_LABEL: Minimum growth inhibitory concentrations (MIC.)

Take a look at these entries with their results.
CNC(=O)CC1NC(=O)c2csc(n2)-c2ccc(-c3nc(C(=O)NCCCCCC(=O)OC)cs3)nc2-c2csc(n2)-c2csc(n2)C(C(C)C)NC(=O)CNC(=O)c2csc(n2)C(C(C)C)NC(=O)c2nc1sc2C (stereo not drawn): > 50 µg/mL
CNC(=O)CC1NC(=O)c2csc(n2)-c2ccc(-c3nc(C(=O)NCCCCCC(=O)O)cs3)nc2-c2csc(n2)-c2csc(n2)C(C(C)C)NC(=O)CNC(=O)c2csc(n2)C(C(C)C)NC(=O)c2nc1sc2C (stereo not drawn): > 50 µg/mL
CNC(=O)CC1NC(=O)c2csc(n2)-c2ccc(-c3nc(C(=O)NCCCN(C)CCCNCCc4ccc(Cl)cc4)cs3)nc2-c2csc(n2)-c2csc(n2)C(C(C)C)NC(=O)CNC(=O)c2csc(n2)C(C(C)C)NC(=O)c2nc1sc2C (stereo not drawn): > 100 µg/mL
CNC(=O)CC1NC(=O)c2csc(n2)-c2ccc(-c3nc(C(=O)NCCCN)cs3)nc2-c2csc(n2)-c2csc(n2)C(C(C)C)NC(=O)CNC(=O)c2csc(n2)C(C(C)C)NC(=O)c2nc1sc2C (stereo not drawn): > 100 µg/mL
CNC(=O)CC1NC(=O)c2csc(n2)-c2ccc(-c3nc(C(=O)NCCCN(C)CCCN)cs3)nc2-c2csc(n2)-c2csc(n2)C(C(C)C)NC(=O)CNC(=O)c2csc(n2)C(C(C)C)NC(=O)c2nc1sc2C (stereo not drawn): > 100 µg/mL

Query compound follows.
Item CCCCNCCCNCCCNC(=O)c1csc(-c2ccc3c(n2)-c2csc(n2)-c2csc(n2)C(C(C)C)NC(=O)CNC(=O)c2csc(n2)C(C(C)C)NC(=O)c2nc(sc2C)C(CC(=O)NC)NC(=O)c2csc-3n2)n1 (stereo not drawn) : provide Minimum growth inhibitory concentrations (MIC.)
> 100 µg/mL

====

- System: Staphylococcus aureus M 126
- METHOD_SUMMARY: MIC, standard serial dilution method
- Assay type: cell-based
- CONDITIONS_USED: Muller-Hinton agar medium, 37° C.
ENDPOINT_LABEL: Minimum growth inhibitory concentrations (MIC.)

Take a look at these entries with their results.
CNC(=O)CC1NC(=O)c2csc(n2)-c2ccc(-c3nc(C(=O)N[C@@H](CCCNC(=N)N)C(=O)O)cs3)nc2-c2csc(n2)-c2csc(n2)C(C(C)C)NC(=O)CNC(=O)c2csc(n2)C(C(C)C)NC(=O)c2nc1sc2C (stereo partly shown) [Compound No. 10]: > 100 µg/mL
CCCCNC(=O)c1csc(-c2ccc3c(n2)-c2csc(n2)-c2csc(n2)C(C(C)C)NC(=O)CNC(=O)c2csc(n2)C(C(C)C)NC(=O)c2nc(sc2C)C(CC(=O)NC)NC(=O)c2csc-3n2)n1 (stereo not shown) [Compound No. 8]: > 100 µg/mL
CNC(=O)CC1NC(=O)c2csc(n2)-c2ccc(-c3nc(C(=O)NCCCO)cs3)nc2-c2csc(n2)-c2csc(n2)C(C(C)C)NC(=O)CNC(=O)c2csc(n2)C(C(C)C)NC(=O)c2nc1sc2C (stereo not shown) [Compound No. 9]: 0.39 µg/mL

State Minimum growth inhibitory concentrations (MIC.) on Staphylococcus aureus M 126. Entry: CNC(=O)CC1NC(=O)c2csc(n2)-c2ccc(-c3nc(C(=O)N[C@H](CO)CCCNC(=N)N)cs3)nc2-c2csc(n2)-c2csc(n2)C(C(C)C)NC(=O)CNC(=O)c2csc(n2)C(C(C)C)NC(=O)c2nc1sc2C (stereo partly shown) [Compound No. 11]
> 100 µg/mL

====

- Tested on: Staphylococcus aureus M 133
- METHOD_SUMMARY: MIC, standard serial dilution method
- Assay type: cell-based
- CONDITIONS_USED: Muller-Hinton agar medium, 37° C.
ENDPOINT_LABEL: Minimum growth inhibitory concentrations (MIC.)

Take a look at these entries with their results.
CNC(=O)CC1NC(=O)c2csc(n2)-c2ccc(-c3nc(C(=O)N[C@@H](CCCNC(=N)N)C(=O)O)cs3)nc2-c2csc(n2)-c2csc(n2)C(C(C)C)NC(=O)CNC(=O)c2csc(n2)C(C(C)C)NC(=O)c2nc1sc2C (stereo partly shown) [Compound No. 10]: > 100 µg/mL
CCCCNC(=O)c1csc(-c2ccc3c(n2)-c2csc(n2)-c2csc(n2)C(C(C)C)NC(=O)CNC(=O)c2csc(n2)C(C(C)C)NC(=O)c2nc(sc2C)C(CC(=O)NC)NC(=O)c2csc-3n2)n1 (stereo not shown) [Compound No. 8]: > 100 µg/mL
CNC(=O)CC1NC(=O)c2csc(n2)-c2ccc(-c3nc(C(=O)NCCCO)cs3)nc2-c2csc(n2)-c2csc(n2)C(C(C)C)NC(=O)CNC(=O)c2csc(n2)C(C(C)C)NC(=O)c2nc1sc2C (stereo not shown) [Compound No. 9]: 0.39 µg/mL

State Minimum growth inhibitory concentrations (MIC.) on Staphylococcus aureus M 133. Entry: CNC(=O)CC1NC(=O)c2csc(n2)-c2ccc(-c3nc(C(=O)N[C@H](CO)CCCNC(=N)N)cs3)nc2-c2csc(n2)-c2csc(n2)C(C(C)C)NC(=O)CNC(=O)c2csc(n2)C(C(C)C)NC(=O)c2nc1sc2C (stereo partly shown) [Compound No. 11]
> 100 µg/mL
